Entries and their fold resistance (FR), strain H
test system: clinically isolated HIV strain H; type: cell-based; conditions: FR=EC50(mutant strain)/EC50(HIV-1 strain LAI)
Quantity Name: fold resistance (FR), strain H

{"columns": ["Compound", "Quantitative Readout"],
 "data": [
  ["CCOC(=O)N(CCN(C)C)c1nc2ccc(S(=O)(=O)N(CC(C)C)C[C@@H](O)[C@H](Cc3ccccc3)NC(=O)O[C@H]3CO[C@H]4OCC[C@H]43)cc2s1 [Compound 28]", 1.8],
  ["Cc1cccc(C)c1OCC(=O)N[C@@H](Cc1ccccc1)[C@H](O)CN(CC(C)C)S(=O)(=O)c1ccc2nc(NCCN3CCNCC3)sc2c1 [Compound 59]", 1.2],
  ["CCOC(=O)Nc1nc2ccc(S(=O)(=O)N(CC(C)C)CC(O)C(Cc3ccccc3)NC(=O)OC3COC4OCCC34)cc2s1 (stereo not drawn) [Compound 2]", 1.0],
  ["Cc1c(N)cccc1C(=O)N[C@@H](Cc1ccccc1)[C@H](O)CN(CC(C)C)S(=O)(=O)c1ccc2nc(NCCN3CCNCC3)sc2c1 [Compound 60]", 1.3],
  ["CC(C)CN(CC(O)C(Cc1ccccc1)NC(=O)OC1COC2OCCC12)S(=O)(=O)c1ccc2nc(NCC[N+](C)(C)[O-])sc2c1 (stereo not drawn) [Compound 27]", 1.2],
  ["CC(C)CN(C[C@@H](O)[C@H](Cc1ccccc1)NC(=O)OCc1cccnc1)S(=O)(=O)c1ccc2nc(NC(=O)CN3CCCC3)sc2c1 [Compound 61]", 5.2]
]}

====

system: clinically isolated HIV strain Q; assay: Antiviral spectrum, cellular assay (fold resistance), strain Q; format: cell-based; conditions: FR=EC50(mutant strain)/EC50(HIV-1 strain LAI)

{"columns": ["Molecule", "fold resistance (FR), strain Q"],
 "data": [
  ["CC(C)CN(C[C@@H](O)[C@H](Cc1ccccc1)NC(=O)O[C@H]1CO[C@H]2OCC[C@H]21)S(=O)(=O)c1ccc2nc(NC(=O)CN3CCCC3)sc2c1.O=C(O)C(=O)O", 0.2],
  ["CCOC(=O)Nc1nc2ccc(S(=O)(=O)N(CC(C)C)CC(O)C(Cc3ccccc3)NC(=O)OC3COC4OCCC34)cc2s1 (centres unmarked)", 0.3],
  ["CC(C)CN(CC(O)C(Cc1ccccc1)NC(=O)OC1COC2OCCC12)S(=O)(=O)c1ccc2nc(NC(=O)CN(C)C)sc2c1 (centres unmarked) [Compound 11]", 0.0],
  ["CC(C)CN(C[C@@H](O)[C@H](Cc1ccccc1)NC(=O)O[C@H]1CCOC1)S(=O)(=O)c1ccc2nc(NC(=O)CN3CCN(C)CC3)sc2c1.O=C(O)C(F)(F)F", 2.3],
  ["CC(C)CN(CC(O)C(Cc1ccccc1)NC(=O)OC1COC2OCCC12)S(=O)(=O)c1ccc2nc(NC(=O)CN(C)C)sc2c1 (mixture of isomers) [Compound 3]", 0.5]
]}

====

assay: Pharmacokinetics after oral dosing in dogs (LC-MS); type: in vivo; conditions: blood, 10 mg/kg, or, dog, 10 mpk, DMSO
Entries and their Cmax
Quantity Name: Cmax

{"columns": ["Smiles Entry", "Quantity Name", "Result"],
 "data": [
  ["CC(C)CN(C[C@@H](O)[C@H](Cc1ccccc1)NC(=O)O[C@H]1CCOC1)S(=O)(=O)c1ccc2nc(NCCN(C)C)sc2c1", "Cmax", "550 ng/mL"],
  ["CC(C)CN(C[C@@H](O)[C@H](Cc1ccccc1)NC(=O)O[C@H]1CO[C@H]2OCC[C@H]21)S(=O)(=O)c1ccc2nc(NCCN3CCCC3)sc2c1", "Cmax", "713 ng/mL"]
]}
